assay: Antioxidant activity assessed as hydrogen peroxide radical scavenging activity; format: functional
READOUT_LABEL: log10 of IC50 (log10 of the value in µg/mL)
# values: log10(IC50), units µg/mL

Example results:
                           molecule  data_value
0  Oc1ccc(O)c2c1Cc1c-2[nH]c2ccccc12        0.52
1  COc1ccc2c(c1)Cc1c-2[nH]c2ccccc12        0.96
2  COc1ccc2c(c1)-c1[nH]c3ccccc3c1C2        0.85
3  Oc1cc2c(cc1O)-c1[nH]c3ccccc3c1C2        0.71
4  Oc1ccc2c(c1O)Cc1c-2[nH]c2ccccc12        0.50
5     Oc1cccc2c1Cc1c-2[nH]c2ccccc12        0.95

What measured log10 of IC50 goes with c1ccc2c3c([nH]c2c1)-c1cc2c(cc1C3)OCO2 ?
0.53

What measured log10 of IC50 goes with COc1cc2c(cc1OC)-c1[nH]c3ccccc3c1C2 ?
1.14

What measured log10 of IC50 goes with COc1ccc(OC)c2c1Cc1c-2[nH]c2ccccc12 ?
0.59

What measured log10 of IC50 goes with Cc1c(C)c2c(c(C)c1O)CCC(C)(C(=O)O)O2 (centres undefined) ?
0.91

What measured log10 of IC50 goes with Fc1ccc2c(c1)Cc1c-2[nH]c2ccccc12 ?
0.64

What measured log10 of IC50 goes with Cc1c(C)c2c(c(C)c1O)CC[C@@](C)(CCC[C@H](C)CCC[C@H](C)CCCC(C)C)O2 ?
1.07

What measured log10 of IC50 goes with Oc1ccc2c(c1)Cc1c-2[nH]c2ccccc12 ?
0.65

What measured log10 of IC50 goes with COc1cc2c(c(OC)c1)-c1[nH]c3ccccc3c1C2 ?
0.53

What measured log10 of IC50 goes with Oc1cc(O)c2c(c1)Cc1c-2[nH]c2ccccc12 ?
0.74

What measured log10 of IC50 goes with c1ccc2c(c1)Cc1c-2[nH]c2ccccc12 ?
0.85

What measured log10 of IC50 goes with Brc1ccc2c(c1)Cc1c-2[nH]c2ccccc12 ?
0.93

What measured log10 of IC50 goes with Cc1cc(C(C)(C)C)c(O)c(C(C)(C)C)c1 [BUTYLATED HYDROXYTOLUENE] ?
0.78

What measured log10 of IC50 goes with COc1cccc2c1Cc1c-2[nH]c2ccccc12 ?
0.57

What measured log10 of IC50 goes with COc1ccc2c(c1OC)Cc1c-2[nH]c2ccccc12 ?
1.41

What measured log10 of IC50 goes with Oc1cccc2c1-c1[nH]c3ccccc3c1C2 ?
0.45

What measured log10 of IC50 goes with COc1ccc(O)c(C(C)(C)C)c1.COc1ccc(O)cc1C(C)(C)C [BUTYLATED HYDROXYANISOLE] ?
0.42

What measured log10 of IC50 goes with Clc1ccc2c(c1)Cc1c-2[nH]c2ccccc12 ?
1.48

What measured log10 of IC50 goes with Oc1ccc2c(c1)-c1[nH]c3ccccc3c1C2 ?
0.51
